Values from patent US20160346402A1

I'd be grateful if you could share measured koff for these entries.
- target_entity: T1, TPP-2305, hTNFRSF12 amino acids a28-80 (recombinant human TWEAKR protein) (human, UniProt Q9NP84 28-80)
- T1 construct: Soluble monomeric antigen, injected as analyte over the captured antibodies; Bought protein
- assay_summary: SPR (Biacore T100), antibody captured, TWEAKR TPP-2305 as analyte, 1:1 model
Give bare numbers, in s⁻¹.

{"binder": "TPP-883 (antibody, human IgG1, kappa, V domains shown, human IgG1) VH: EVQLLESGGGLVQPGGSLRLSCAASGFTFSPYPMMWVRQAPGKGLEWVSYISPSGGKTHYADSVKGRFTISRDNSKNTLYLQMNSLRAEDTAVYYCARGGDGYFDYFDYWGQGTLVTVSS VL: DIQMTQSPATLSASVGDRVTITCRASQSISSYLNWYQQKPGKAPKLLIYAASSLQSGVPSRFSGSGSGTDFTLTISSLQPEDFATYYCQQSYSSPGITFGPGTKVEIKR", "koff [s⁻¹]": 0.91}
{"binder": "P4A8(TPP-1324) (antibody, human IgG1, kappa, V domains shown, Comparative antibody, human IgG1; variable domains from WO2009/140177 with added constant regions) VH: QVQLVQSGAEVKKPGASVKVSCKGSGYTFTDYGMHWVRQAPGQGLEWMGVISTYNGYTNYNQKFKGRVTMTVDKSTSTAYMELRSLRSDDTAVYYCARAYYGNLYYAMDYWGQGTLVTVSS VL: DIVLTQSPASLAVSLGQRATISCRASKSVSTSSYSYMHWYQQKPGQPPKLLIKYASNLESGVPARFSGSGSGTDFSLNIHPMEEDDTAMYFCQHSRELPFTFGGGTKLEIKR", "koff [s⁻¹]": 0.0027}

# query: koff of entry 136.1(TPP-2194) (antibody, mouse IgG2a, kappa, V domains shown, Comparative antibody, murine IgG2a; variable domains from WO2009/020933 with added constant regions) VH: EVKLEESGGGLVQPGGSMKLSCVASGFTFNNYWMSWVRQSPEKGLEWLAEIRLKSDNYATHYAESVKGKFTISRDDSKSRLYLQMNNLRAENTGIYYCTGGFADYFDYWGQGTTLTVSS VL: DIVLTQSPASLTVSLGQRATISCRASQSVSTSSYSYMQWYQQRPGQPPKLLIKYATNLDSGVPARFSGSGSGTDFTLNIHPVEEEDAATYYCQHSWEIPYTFGGGTKLEIKR
0.0324
